Measured kd ratio pH 7.4/6.0 accompanies every entry in the list below.
- Subject Of Test: T1, cyno FcRn/b2M (cyno, UniProt Q8SPV9 24-297; Q8SPW0 21-119, biotinylated)
- T1 construct: bought recombinant biotinylated protein (Immunitrack ITF05 or ACRO FCM-C82W5); also called cFcRn; cFcRn/cb2M
- Protocol Details: SPR off-rate; pH 7.4 vs pH 6.0;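 also: surface plasmon resonance with diluted periplasmic extracts flowed over ligand surfaces, 120 s association and 600–3600 s dissociation at 25 °C, running buffer containing 150 mM NaCl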

INSERT INTO results (binder, experimental_result) VALUES
  ('T0263018B11 S101A (VHH, name in Kabat numbering, FLAG3-His6 tagged) VHH: EVQLVESGGGVVQPGGSLRLSCAASGFTFSSYAMYWVRQAPGKGLEWVSAISSGGGSTDYADSVKGRFTISRDNSKNTLYLQMNSLRPEDTALYYCAADTLYTSLTWYAYWGQGTLVTVSS', 45),
  ('T0263018B11 T28W (VHH, name in Kabat numbering, FLAG3-His6 tagged) VHH: EVQLVESGGGVVQPGGSLRLSCAASGFWFSSYAMYWVRQAPGKGLEWVSAISSGGGSTDYADSVKGRFTISRDNSKNTLYLQMNSLRPEDTALYYCAADTLYTSLTWYSYWGQGTLVTVSS', 80),
  ('T0263018B11 G26N (VHH, name in Kabat numbering, FLAG3-His6 tagged) VHH: EVQLVESGGGVVQPGGSLRLSCAASNFTFSSYAMYWVRQAPGKGLEWVSAISSGGGSTDYADSVKGRFTISRDNSKNTLYLQMNSLRPEDTALYYCAADTLYTSLTWYSYWGQGTLVTVSS', 86);

Shifting focus to the binder that follows.
In: Record request: kd ratio pH 7.4/6.0 value, item T0263018B11 G54L (VHH, name in Kabat numbering, FLAG3-His6 tagged) VHH: EVQLVESGGGVVQPGGSLRLSCAASGFTFSSYAMYWVRQAPGKGLEWVSAISSGLGSTDYADSVKGRFTISRDNSKNTLYLQMNSLRPEDTALYYCAADTLYTSLTWYSYWGQGTLVTVSS
Out: 35
